Please go through the items and note down their combination Emax.
Test system: D-283MED (Other Solid Carcinomas)
Experiment: combination Emax (second highest fraction inhibited in the dose matrix, 72 h); higher = more inhibition; extreme values may be limits of the assay
# output: bare number, no unit

Exam item: Answer with reported combination Emax of NC1(C(=O)N[C@@H](CCO)c2ccc(Cl)cc2)CCN(c2ncnc3[nH]ccc23)CC1 [Capivasertib] + Cn1cnc2c(F)c(Nc3ccc(Br)cc3Cl)c(C(=O)NOCCO)cc21 [Selumetinib] (first compound max 10 µM, 7x7, partner max 10 µM)
Marked response: 0.548

Exam item: Answer with reported combination Emax of CN(CCO)CC[C@H](CSc1ccccc1)Nc1ccc(S(=O)(=O)NC(=O)c2ccc(N3CCC([C@@H](O)c4ccccc4-c4ccc(Cl)cc4)CC3)cc2)cc1S(=O)(=O)C(F)(F)F [AZD4320] + Nc1ccn([C@@H]2O[C@H](CO)[C@@H](O)C2(F)F)c(=O)n1 [Gemcitabine] (first compound max 1 µM, 7x7, partner max 0.3 µM)
Marked response: 1

Exam item: Answer with reported combination Emax of CC1(C)CCC(CN2CCN(c3ccc(C(=O)NS(=O)(=O)c4ccc(NCC5CCOCC5)c([N+](=O)[O-])c4)c(Oc4cnc5[nH]ccc5c4)c3)CC2)=C(c2ccc(Cl)cc2)C1 [Venetoclax] + C[C@@H](Nc1cc(F)cc(F)c1)c1cc(C(=O)N(C)C)cc2c(=O)cc(N3CCOCC3)oc12 [AZD8186] (first compound max 1 µM, 7x7, partner max 3 µM)
Marked response: 0.615

Exam item: Answer with reported combination Emax of CC1(C)CCC(CN2CCN(c3ccc(C(=O)NS(=O)(=O)c4ccc(NCC5CCOCC5)c([N+](=O)[O-])c4)c(Oc4cnc5[nH]ccc5c4)c3)CC2)=C(c2ccc(Cl)cc2)C1 [Venetoclax] + C1CN(CCC1(C(=O)N[C@@H](CCO)C2=CC=C(C=C2)Cl)N)C3=NC=NC4=C3C=CN4 [Capivasertib] (first compound max 1 µM, 7x7, partner max 3 µM)
Marked response: 0.582

Exam item: Answer with reported combination Emax of CN(C)CCCOc1ccc(-c2ccc3ncc4c(c3c2)n(C2CCOCC2)c(=O)n4C)cn1 [AZD0156] + C[C@@H]1COCCN1C2=NC(=NC(=C2)C3(CC3)[S@](=N)(=O)C)C4=C5C=CNC5=NC=C4 [AZD6738] (first compound max 1 µM, 7x7, partner max 10 µM)
Marked response: 1

Exam item: Answer with reported combination Emax of Cc1cc2ncnn2cc1Nc1ncc2c(n1)n(C1CCOCC1)c(=O)n2C [AZD7648] + C[C@@H]1COCCN1C2=NC(=NC(=C2)C3(CC3)[S@](=N)(=O)C)C4=C5C=CNC5=NC=C4 [AZD6738] (first compound max 10 µM, 7x7, partner max 10 µM)
Marked response: 0.988

Exam item: Answer with reported combination Emax of Cc1c2c(nn1C)CSCc1cc(n(C)n1)CSc1cc(c3ccccc3c1)OCCCc1c(C(=O)O)n(C)c3c-2c(Cl)ccc13 [AZD5991] + Cc1cc2ncnn2cc1Nc1ncc2c(n1)n(C1CCOCC1)c(=O)n2C [AZD7648] (first compound max 1 µM, 7x7, partner max 10 µM)
Marked response: 0.435
